Exercise: for every item that follows, state its recorded AC50.
biological target: Thromboxane A2 receptor (Homo sapiens, UniProt P21731); type: functional, cell-based; also: assay procedure not described here
Sequence (P21731 whole entry): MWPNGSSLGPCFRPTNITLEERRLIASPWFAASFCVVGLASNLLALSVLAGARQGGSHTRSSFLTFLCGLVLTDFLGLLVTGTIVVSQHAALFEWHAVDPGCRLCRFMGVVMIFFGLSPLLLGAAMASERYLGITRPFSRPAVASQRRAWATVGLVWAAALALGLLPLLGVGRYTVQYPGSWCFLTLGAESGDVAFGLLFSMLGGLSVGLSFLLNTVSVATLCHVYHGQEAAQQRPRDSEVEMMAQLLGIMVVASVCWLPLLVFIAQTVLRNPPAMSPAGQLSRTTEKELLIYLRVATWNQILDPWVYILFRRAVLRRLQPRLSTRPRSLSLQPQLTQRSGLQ

Solved entries:
COMPOUND	MEASURED_TARGET	AC50
CC1(C)O[C@@H]2C[C@H]3[C@@H]4C[C@H](F)C5=CC(=O)C=C[C@]5(C)[C@@]4(F)[C@@H](O)C[C@]3(C)[C@]2(C(=O)CO)O1 [FLUOCINOLONE ACETONIDE]	Thromboxane A2 receptor (Homo sapiens, UniProt P21731)	> 30 µM
COC(=O)[C@H]1[C@H]2C[C@@H]3c4[nH]c5cc(OC)ccc5c4CCN3C[C@H]2C[C@@H](OC(=O)c2cc(OC)c(OC)c(OC)c2)[C@@H]1OC [RESERPINE]	Thromboxane A2 receptor (Homo sapiens, UniProt P21731)	> 30 µM
C[N+](C)(CCCCCC[N+](C)(C)C1c2ccccc2-c2ccccc21)C1c2ccccc2-c2ccccc21 [HEXAFLUORENIUM]	Thromboxane A2 receptor (Homo sapiens, UniProt P21731)	> 30 µM
O=C(NNCS(=O)(=O)O)c1ccncc1 [METHANIAZIDE]	Thromboxane A2 receptor (Homo sapiens, UniProt P21731)	> 30 µM

Now look at this entry.
Lab note: C=CC(=O)Nc1cccc(Oc2nc(Nc3ccc(N4CCN(C)CC4)cc3)nc3ccsc23)c1 [OLMUTINIB] gave AC50 of > 30 µM

###

target: UniProt P35348; format: functional, cell-based
Sequence (P35348 whole entry): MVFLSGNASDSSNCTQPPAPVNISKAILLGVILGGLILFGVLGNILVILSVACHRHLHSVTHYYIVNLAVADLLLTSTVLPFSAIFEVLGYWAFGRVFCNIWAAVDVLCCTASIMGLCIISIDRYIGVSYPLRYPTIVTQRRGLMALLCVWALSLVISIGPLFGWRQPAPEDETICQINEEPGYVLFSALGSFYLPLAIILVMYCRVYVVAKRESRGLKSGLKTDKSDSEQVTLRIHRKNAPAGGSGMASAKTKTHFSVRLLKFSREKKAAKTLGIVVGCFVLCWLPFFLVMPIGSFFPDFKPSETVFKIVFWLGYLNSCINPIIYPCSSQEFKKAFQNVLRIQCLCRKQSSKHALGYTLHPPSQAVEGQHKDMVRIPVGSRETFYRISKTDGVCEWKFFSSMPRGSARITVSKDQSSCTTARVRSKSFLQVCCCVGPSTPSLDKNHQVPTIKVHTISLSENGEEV
QUANTITY_KIND: AC50

Example results:
COMPOUND	EXPERIMENTAL_RESULT
CCN1CC(CCN2CCOCC2)C(c2ccccc2)(c2ccccc2)C1=O (centres undefined)	> 30 µM
C[C@]12CCC(=O)C[C@@H]1CC[C@@H]1[C@@H]2CC[C@]2(C)[C@@H](O)CC[C@@H]12	> 30 µM
CCCCCCCN(CC)CCCC(O)c1ccc(NS(C)(=O)=O)cc1 (centres undefined) [IBUTILIDE]	> 30 µM
CC(C)(C)NCC(O)c1ccccc1Cl (centres undefined)	> 30 µM
CN1CCN=C(c2ccccc2)c2cc(Cl)ccc21	19 µM
CC1=C(C(=O)OC(C)C)C(c2cccc([N+](=O)[O-])c2)C(C(=O)OC2CN(C(c3ccccc3)c3ccccc3)C2)=C(N)N1 (centres undefined)	26 µM
S=P(N1CC1)(N1CC1)N1CC1	0.044 µM
CC(O)(CS(=O)(=O)c1ccc(F)cc1)C(=O)Nc1ccc(C#N)c(C(F)(F)F)c1 (centres undefined) [BICALUTAMIDE]	> 30 µM

Answer for every listed entry: what is its AC50? The entries follow.
1. OC[C@H]1O[C@@H](Oc2cc(O)cc(/C=C/c3ccc(O)cc3)c2)[C@H](O)[C@@H](O)[C@@H]1O
2. Cn1cc(C(=O)[C@@H]2CCc3nc[nH]c3C2)c2ccccc21
3. CCc1nc(N)nc(N)c1-c1ccc(Cl)cc1
4. CC(CN(C)C)C(C)(O)Cc1ccc(Cl)cc1 (centres undefined)
5. CC(C)c1cccc(C(C)C)c1O
6. O=C1Cc2cc(CCN3CCN(c4nsc5ccccc45)CC3)c(Cl)cc2N1
7. Cc1ccnc2c1NC(=O)c1cccnc1N2C1CC1

1. 19 µM
2. > 30 µM
3. > 30 µM
4. > 30 µM
5. > 30 µM
6. 0.684 µM
7. > 30 µM

Please report AC50 for every entry that follows.
1. CN[C@]1(c2ccccc2Cl)CCCCC1=O
2. CC(=O)[C@H]1CC[C@H]2[C@@H]3C[C@H](C)C4=CC(=O)CC[C@]4(C)[C@H]3[C@@H](O)C[C@]12C
3. CC(C)[C@H](N)C(=O)OCCOCn1cnc2c(=O)[nH]c(N)nc21
4. CCOC(=O)c1ccc(C#Cc2ccc3c(c2)C(C)(C)CCS3)nc1

> 30 µM
> 30 µM
> 30 µM
> 30 µM

###

biological target: Voltage-gated inwardly rectifying potassium channel KCNH2 (Homo sapiens, UniProt Q12809); assay type: functional; also: assay procedure not described here
Sequence (Q12809 whole entry): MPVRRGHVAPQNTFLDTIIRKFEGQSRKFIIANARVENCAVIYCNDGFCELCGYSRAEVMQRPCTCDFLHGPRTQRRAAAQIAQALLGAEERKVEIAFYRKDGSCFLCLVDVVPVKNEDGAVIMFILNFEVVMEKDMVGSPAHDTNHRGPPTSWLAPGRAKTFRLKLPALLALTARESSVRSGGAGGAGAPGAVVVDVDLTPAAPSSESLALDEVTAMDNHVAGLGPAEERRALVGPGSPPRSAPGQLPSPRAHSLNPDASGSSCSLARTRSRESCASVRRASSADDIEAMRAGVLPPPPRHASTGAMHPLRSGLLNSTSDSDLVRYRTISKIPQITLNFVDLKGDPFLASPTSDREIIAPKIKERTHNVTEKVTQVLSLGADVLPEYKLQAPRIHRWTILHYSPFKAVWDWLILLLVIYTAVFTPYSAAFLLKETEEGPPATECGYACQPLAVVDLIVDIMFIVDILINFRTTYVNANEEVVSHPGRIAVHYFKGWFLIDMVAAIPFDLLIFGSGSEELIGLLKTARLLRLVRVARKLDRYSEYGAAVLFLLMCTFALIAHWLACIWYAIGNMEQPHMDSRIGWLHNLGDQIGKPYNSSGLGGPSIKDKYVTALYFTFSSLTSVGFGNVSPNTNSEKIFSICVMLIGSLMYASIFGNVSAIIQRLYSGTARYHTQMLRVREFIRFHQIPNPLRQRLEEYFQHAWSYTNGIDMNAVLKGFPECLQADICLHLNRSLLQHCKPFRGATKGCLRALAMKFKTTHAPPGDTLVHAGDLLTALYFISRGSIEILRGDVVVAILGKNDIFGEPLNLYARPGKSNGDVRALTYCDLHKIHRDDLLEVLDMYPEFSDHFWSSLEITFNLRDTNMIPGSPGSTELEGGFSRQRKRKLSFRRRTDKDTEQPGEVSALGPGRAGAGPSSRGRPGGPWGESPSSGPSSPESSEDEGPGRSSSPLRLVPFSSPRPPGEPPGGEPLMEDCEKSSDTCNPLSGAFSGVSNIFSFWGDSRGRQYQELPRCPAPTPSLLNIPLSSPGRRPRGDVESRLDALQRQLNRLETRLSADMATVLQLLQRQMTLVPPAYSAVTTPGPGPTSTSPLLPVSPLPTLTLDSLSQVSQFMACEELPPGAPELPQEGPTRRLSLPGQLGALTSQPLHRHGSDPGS
Where a SMILES comes first, the peptide text is derived from it. [ ]: non-standard residue; d: D form. pGlu = O=C1CC[C@@H](C(=O)O)N1; Thz = O=C(O)[C@@H]1CSCN1
QUANTITY_KIND: AC50

Below, each entry is followed by its recorded AC50 result.
COMPOUND	MEASURED_TARGET	AC50
O=C(O)c1cccnc1Nc1cccc(C(F)(F)F)c1	Voltage-gated inwardly rectifying potassium channel KCNH2 (Homo sapiens, UniProt Q12809)	> 30000 nM
CC[C@]12CCCN3CCc4c(n(c5ccccc45)[C@@](O)(C(=O)OC)C1)[C@@H]32	Voltage-gated inwardly rectifying potassium channel KCNH2 (Homo sapiens, UniProt Q12809)	460 nM
CNCCc1ccc(OC(=O)C(C)C)c(OC(=O)C(C)C)c1	Voltage-gated inwardly rectifying potassium channel KCNH2 (Homo sapiens, UniProt Q12809)	> 30000 nM
CCOC(=O)c1ccc(C#Cc2ccc3c(c2)C(C)(C)CCS3)nc1	Voltage-gated inwardly rectifying potassium channel KCNH2 (Homo sapiens, UniProt Q12809)	> 30000 nM
CCC(=O)O[C@](Cc1ccccc1)(c1ccccc1)[C@H](C)CN(C)C	Voltage-gated inwardly rectifying potassium channel KCNH2 (Homo sapiens, UniProt Q12809)	1740 nM
CC(C)(C)NC(=O)N[C@H](C(=O)N1C[C@H]2[C@@H]([C@H]1C(=O)NC(CC1CCC1)C(=O)C(N)=O)C2(C)C)C(C)(C)C (stereo partly drawn)	Voltage-gated inwardly rectifying potassium channel KCNH2 (Homo sapiens, UniProt Q12809)	> 30000 nM
O=c1[nH]c2ccccc2n1CCCN1CCN(C(c2ccccc2)c2ccccc2)CC1 [OXATOMIDE]	Voltage-gated inwardly rectifying potassium channel KCNH2 (Homo sapiens, UniProt Q12809)	26 nM

Now look at this entry.
Lookup result for O=C1CC[C@@H](C(=O)N2CSC[C@H]2C(=O)O)N1 [PIDOTIMOD] ([pGlu]-[Thz]-OH) ; measured AC50: > 30000 nM

###

For each record, write down the corresponding AC50.
Biological target: UniProtKB P08172
Sequence (P08172 whole entry): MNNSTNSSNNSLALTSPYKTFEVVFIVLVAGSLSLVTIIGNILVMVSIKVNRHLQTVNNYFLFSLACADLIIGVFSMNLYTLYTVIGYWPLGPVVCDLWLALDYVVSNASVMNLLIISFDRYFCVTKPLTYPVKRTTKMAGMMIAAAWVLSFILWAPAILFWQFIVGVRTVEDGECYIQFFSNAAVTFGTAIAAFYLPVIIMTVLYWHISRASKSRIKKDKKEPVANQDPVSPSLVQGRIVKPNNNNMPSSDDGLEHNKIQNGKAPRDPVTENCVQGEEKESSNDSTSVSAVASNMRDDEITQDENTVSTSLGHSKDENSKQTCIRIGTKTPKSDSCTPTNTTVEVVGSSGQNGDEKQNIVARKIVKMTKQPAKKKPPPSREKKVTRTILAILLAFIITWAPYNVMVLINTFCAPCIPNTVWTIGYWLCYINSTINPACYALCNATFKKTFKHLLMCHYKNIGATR
Format: functional, cell-based

Below, 3 molecules whose answers are already recorded.
MOLECULE	EXPERIMENTAL_RESULT
CC(=O)Nc1ccc(CC(=O)O)cc1 [ACTARIT]	> 30 µM
CN[C@@H](C)[C@@H](O)c1ccccc1 [PSEUDOEPHEDRINE]	> 10 µM
CC(C)C[C@H](NC(=O)[C@@H](O)[C@H](N)Cc1ccccc1)C(=O)O [UBENIMEX]	> 30 µM

Would you be so kind as to report AC50 for each listed record?
1. CN(Cc1cnc2nc(N)nc(N)c2n1)c1ccc(C(=O)N[C@@H](CCC(=O)O)C(=O)O)cc1 [METHOTREXATE]
2. COC(=O)C1=C(C)NC(C)=C(C(=O)OCCN2CCN(C(c3ccccc3)c3ccccc3)CC2)C1c1cccc([N+](=O)[O-])c1 (stereo not given) [MANIDIPINE 6300]

1: > 10 µM; 2: > 30 µM

###

molecular target: Prostaglandin G/H synthase 1 (Homo sapiens); format: functional; also: assay procedure not described here
Sequence (P23219 whole entry): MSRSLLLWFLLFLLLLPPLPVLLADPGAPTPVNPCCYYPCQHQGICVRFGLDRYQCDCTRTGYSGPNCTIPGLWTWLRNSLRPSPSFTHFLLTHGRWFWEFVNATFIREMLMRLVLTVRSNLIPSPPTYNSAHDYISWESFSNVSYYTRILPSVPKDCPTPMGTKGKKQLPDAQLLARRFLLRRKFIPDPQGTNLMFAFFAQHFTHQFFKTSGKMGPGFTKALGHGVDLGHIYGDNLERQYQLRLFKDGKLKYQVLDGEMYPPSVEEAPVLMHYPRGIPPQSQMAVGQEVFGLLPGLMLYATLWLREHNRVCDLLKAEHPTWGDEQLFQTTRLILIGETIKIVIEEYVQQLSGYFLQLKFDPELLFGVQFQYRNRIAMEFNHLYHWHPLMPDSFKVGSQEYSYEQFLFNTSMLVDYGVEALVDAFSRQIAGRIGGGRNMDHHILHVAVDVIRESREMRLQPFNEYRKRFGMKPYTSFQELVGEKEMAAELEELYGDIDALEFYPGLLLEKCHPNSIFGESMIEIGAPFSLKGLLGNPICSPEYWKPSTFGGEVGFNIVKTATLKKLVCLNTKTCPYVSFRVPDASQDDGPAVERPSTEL
Please go through the items and note down their AC50.

Here is how some compounds turned out for AC50.
COMPOUND	AC50
Cc1oc(=O)oc1COC(=O)[C@@H]1N2C(=O)[C@@H](NC(=O)[C@H](N)c3ccccc3)[C@H]2SC1(C)C [LENAMPICILLIN]	> 30 µM
CC(O)(CS(=O)(=O)c1ccc(F)cc1)C(=O)Nc1ccc(C#N)c(C(F)(F)F)c1 (configuration not stated) [BICALUTAMIDE]	> 30 µM
NC[C@H]1CC[C@H](C(=O)Oc2ccc(CCC(=O)O)cc2)CC1 [CETRAXATE]	> 30 µM
Cc1cc2c(cc1S(N)(=O)=O)S(=O)(=O)CCC2	> 30 µM
CCCCC(CC)CN1CN(CC(CC)CCCC)CC(C)(N)C1 (configuration not stated) [HEXETIDINE]	> 30 µM
C[N+](C)(CCCCCC[N+](C)(C)C1c2ccccc2-c2ccccc21)C1c2ccccc2-c2ccccc21 [HEXAFLUORENIUM]	> 30 µM
C#C[C@]1(O)C=C[C@H]2[C@@H]3CCC4=CC(=O)CC[C@@H]4[C@H]3CC[C@@]21CC [GESTODENE]	> 30 µM
CN(C)c1ccc(O)c2c1C[C@H]1C[C@H]3[C@H](N(C)C)C(O)=C(C(N)=O)C(=O)[C@@]3(O)C(O)=C1C2=O [MINOCYCLINE]	2.5 µM
CC(C(=O)O)c1cccc(Oc2ccccc2)c1 (configuration not stated) [FENOPROFEN]	13.5 µM
CCN(CC)CCCC(C)Nc1c2ccc(Cl)cc2nc2ccc(OC)cc12 (configuration not stated) [QUINACRINE]	> 30 µM

# per-item lookup of AC50; items listed below
1. CC[C@@H]1C[C@]1(NC(=O)[C@@H]1C[C@@H]2CN1C(=O)[C@H](C(C)(C)C)NC(=O)OCC(C)(C)CCCCc1cccc3c1CN(C3)C(=O)O2)C(=O)NS(=O)(=O)C1CC1
2. O=C(O)Cc1ccccc1Oc1ccc(Cl)cc1Cl [FENCLOFENAC]
3. COc1cc(C)c2c(Oc3cccc(C(F)(F)F)c3)c(OC)cc(NC(C)CCCN)c2n1 (configuration not stated) [TAFENOQUINE]
4. CC(C)C(=O)Oc1ccc(CO)cc1[C@H](CCN(C(C)C)C(C)C)c1ccccc1 [FESOTERODINE]

["> 30 µM", "> 30 µM", "3.81 µM", "> 30 µM"]

Go through the items and report each one's AC50.
1. CC(=O)OC[C@H]1O[C@@H](n2ncc(=O)[nH]c2=O)[C@H](OC(C)=O)[C@@H]1OC(C)=O [AZARIBINE]
2. O=C(O)[C@@H]1C[C@@H](O)CN1
3. COc1ccc2c(C(=S)N(C)CC(=O)O)cccc2c1C(F)(F)F [TOLRESTAT]

> 30 µM
> 30 µM
> 30 µM

The measured values listed here are drawn from ChEMBL document CHEMBL5291721.
